Kindly supply the reported IC50 values for the records listed here.
System: ZR75-1
Assay Name: Clonogenic assay (clonal expansion)
Format: cell-based
Protocol Conditions: Homo sapiens, ZR-75-1; Breast Cancer (ZR75-1), ER+; inhibition of clonal expansion
Note: unit nM is implicit; provide only the numeric part.

The recorded IC50 for entry Cc1cc(Cl)c2nc(-c3ccccc3)cn2c1 equals 39.2

The recorded IC50 for entry Fc1ccc(-c2cn3cc(C(F)(F)F)ccc3n2)cc1 equals 31.8

The recorded IC50 for entry FC(F)(F)c1cc(Cl)c2nc(-c3ccccc3)cn2c1 equals 10.2

The recorded IC50 for entry Cc1cc(Cl)c2nc(-c3ccc(F)cc3)cn2c1 equals 16.2

The recorded IC50 for entry Fc1ccc(-c2cn3cc(C(F)(F)F)cc(Cl)c3n2)cc1 equals 7.3

* * *

Kindly supply the reported IC50 values for the records listed here.
Test system: 22Rv.1
Assay Name: Clonogenic assay (clonal expansion)
Assay type: cell-based
Protocol Conditions: Homo sapiens, 22Rv1; Prostate Cancer (22Rv.1), AR+; inhibition of clonal expansion
Note: unit nM is implicit; provide only the numeric part.

Tested on 22Rv.1, the item Fc1ccc(-c2cn3cc(Br)ccc3n2)cc1 showed IC50 equal to 641

Tested on 22Rv.1, the item FC(F)(F)c1cc(Cl)c2nc(-c3ccccc3)cn2c1 showed IC50 equal to 22.5

Tested on 22Rv.1, the item Cc1cc(Cl)c2nc(-c3ccccc3)cn2c1 showed IC50 equal to 48.5

Tested on 22Rv.1, the item Fc1ccc(-c2cn3cc(C(F)(F)F)cc(Cl)c3n2)cc1 showed IC50 equal to 40.2

Tested on 22Rv.1, the item Fc1ccc(-c2cn3cc(C(F)(F)F)ccc3n2)cc1 showed IC50 equal to 7.5

Tested on 22Rv.1, the item Cc1cc(Cl)c2nc(-c3ccc(F)cc3)cn2c1 showed IC50 equal to 4.4

Tested on 22Rv.1, the item Fc1ccccc1-c1cn2cc(C(F)(F)F)cc(Cl)c2n1 showed IC50 equal to 4.4

* * *

Test system: MDA-MB231
Assay Name: Clonogenic assay (clonal expansion)
Type: cell-based
Protocol Conditions: Homo sapiens, MDA-MB-231; Breast Cancer (MDA-MB231), ER-; inhibition of clonal expansion
Property Label: IC50

The recorded IC50 for entry Fc1ccc(-c2cn3cc(C(F)(F)F)cc(Cl)c3n2)cc1 equals 5.54 µM

* * *

Test system: T47D
Assay Name: Clonogenic assay (clonal expansion)
Type: cell-based
Protocol Conditions: Homo sapiens; Breast Cancer (T47D), ER+; inhibition of clonal expansion
Kindly supply the reported pIC50 values for the records listed here.
Please note pIC50 is a logarithmic value: minus log10 of concentration in mol/L. Answer with that number alone.

The recorded pIC50 for entry FC(F)(F)c1cc(Cl)c2nc(-c3ccccc3)cn2c1 [X19166/ X15696] equals 7.35

The recorded pIC50 for entry Cc1cc(Cl)c2nc(-c3ccc(F)cc3)cn2c1 [Compound X19724] equals 7.06

The recorded pIC50 for entry Fc1ccc(-c2cn3cc(C(F)(F)F)ccc3n2)cc1 [Compound X20046] equals 7.24

The recorded pIC50 for entry Fc1ccc(-c2cn3cc(C(F)(F)F)cc(Cl)c3n2)cc1 [Compound X15695] equals 7.98
